experiment: Volume of distribution at steady state in rat at 5 mg/kg, iv and 20 mg/kg, po; assay type: ADME, organism-based; settings: in vivo, read-out: Vdss

Entry smiles	Vd
Oc1cccc(-c2cc(Nc3cnc4ccccc4c3)nc(N3CCOCC3)n2)c1	6.9 L/kg
Nc1ccc(-c2cc(Nc3cnc4ccccc4c3)nc(N3CCOCC3)n2)cn1	0.8 L/kg
Nc1ncc(-c2cc(Nc3cnc4ccccc4c3)nc(N3CCOCC3)n2)cn1	1.9 L/kg
c1cncc(-c2cc(Nc3cnc4ccccc4c3)nc(N3CCOCC3)n2)c1	2.4 L/kg

====

assay: Clearance in mouse at 5 mg/kg, iv and 10 mg/kg, po; type: ADME, organism-based; settings: in vivo

Entry smiles	clearance, mL/min/kg
COc1ccc(Nc2cc(-c3cnc(N)nc3)nc(N3CCOCC3)n2)cn1	99

====

assay: Volume of distribution at steady state in mouse at 5 mg/kg, iv and 10 mg/kg, po; type: ADME, organism-based; conditions: in vivo, read-out: Vdss
Outcome measure: Vd (L/kg)

Entry smiles	Units text	Assay value
COc1ccc(Nc2cc(-c3cnc(N)nc3)nc(N3CCOCC3)n2)cn1	L/kg	1.1

====

assay: Oral bioavailability in mouse at 10 mg/kg; format: ADME, organism-based; conditions: in vivo

Entry smiles	Units text	bioavailability
COc1ccc(Nc2cc(-c3cnc(N)nc3)nc(N3CCOCC3)n2)cn1	%	87

====

test: Half life in mouse at 10 mg/kg, po; type: ADME, organism-based; parameters: dose 10 mg/kg, route oral; conditions: in vivo

Entry smiles	half-life (h)
COc1ccc(Nc2cc(-c3cnc(N)nc3)nc(N3CCOCC3)n2)cn1	4.7

====

experiment: AUC in rat at 20 mg/kg, po; format: ADME, organism-based; set-up: dose 20 mg/kg, route oral; settings: plasma
# AUC per entry
Outcome measure: AUC (µM·h)

Entry smiles	Units text	Assay value
Nc1ncc(-c2cc(Nc3cnc4ccccc4c3)nc(N3CCOCC3)n2)cn1	µM·h	6
Oc1cccc(-c2cc(Nc3cnc4ccccc4c3)nc(N3CCOCC3)n2)c1	µM·h	0.03
c1cncc(-c2cc(Nc3cnc4ccccc4c3)nc(N3CCOCC3)n2)c1	µM·h	16
Nc1ccc(-c2cc(Nc3cnc4ccccc4c3)nc(N3CCOCC3)n2)cn1	µM·h	93

====

assay: AUC in mouse at 10 mg/kg, po; assay type: ADME, organism-based; set-up: dose 10 mg/kg, route oral; conditions: plasma
Outcome measure: AUC

Entry smiles	Assay value
COc1ccc(Nc2cc(-c3cnc(N)nc3)nc(N3CCOCC3)n2)cn1	2 µM·h

====

assay: Oral bioavailability in rat at 20 mg/kg; type: ADME, organism-based; details: in vivo
Outcome measure: bioavailability (%)

Entry smiles	Outcome measure	Units text	Assay value
c1cncc(-c2cc(Nc3cnc4ccccc4c3)nc(N3CCOCC3)n2)c1	bioavailability	%	46
Nc1ncc(-c2cc(Nc3cnc4ccccc4c3)nc(N3CCOCC3)n2)cn1	bioavailability	%	23
Oc1cccc(-c2cc(Nc3cnc4ccccc4c3)nc(N3CCOCC3)n2)c1	bioavailability	%	1
Nc1ccc(-c2cc(Nc3cnc4ccccc4c3)nc(N3CCOCC3)n2)cn1	bioavailability	%	56

====

assay: Clearance in rat at 5 mg/kg, iv and 20 mg/kg, po; type: ADME, organism-based; details: in vivo
This section presents compounds with their documented clearance values.
Outcome measure: clearance (mL/min/kg)

Entry smiles	Outcome measure	Assay value
c1cncc(-c2cc(Nc3cnc4ccccc4c3)nc(N3CCOCC3)n2)c1	clearance	26
Oc1cccc(-c2cc(Nc3cnc4ccccc4c3)nc(N3CCOCC3)n2)c1	clearance	179
Nc1ncc(-c2cc(Nc3cnc4ccccc4c3)nc(N3CCOCC3)n2)cn1	clearance	37
Nc1ccc(-c2cc(Nc3cnc4ccccc4c3)nc(N3CCOCC3)n2)cn1	clearance	5
